# target.or.system: Apolipoprotein L1 (Homo sapiens, UniProt O14791)
# experimental.protocol: Inhibition of APOL1 G1 variant in human HEK293-T-REx cells measured by Thallium assay
measurement.kind: IC50

Below, 2 compounds whose answers are already recorded.
O=C(NC1CCOC1)O[C@H]1C[C@H](c2c(-c3ccc(F)cc3)[nH]c3c(F)cc(F)cc32)C1 (stereo partly drawn)    > 1 µM
O=C(NCC1CCOC1)O[C@H]1C[C@H](c2c(-c3ccc(F)cc3)[nH]c3c(F)cc(F)cc32)C1 (stereo partly drawn)    > 1 µM

Just so you know, measured IC50 for C[C@@H](O)CNC(=O)C1CC(Cc2c(-c3ccc(F)cc3)[nH]c3c(F)cc(F)cc23)C1 (stereo partly drawn) came out at > 1 µM

Just so you know, measured IC50 for O=C(NCCO)C1CC(Cc2c(-c3ccc(F)cc3)[nH]c3c(F)cc(F)cc23)C1 (stereo not drawn) came out at 0.00025 µM

Just so you know, measured IC50 for CC(C)(CO)NC(=O)[C@H]1C[C@H](c2c(-c3ccc(F)cc3)[nH]c3c(F)cc(F)cc32)C1 came out at < 0.25 µM

Just so you know, measured IC50 for Cn1nccc1NC(=O)[C@H]1C[C@@H](c2c(-c3ccc(F)cc3)[nH]c3c(F)cc(F)cc32)C1 came out at > 1 µM

Just so you know, measured IC50 for CC1(O)CC(NC(=O)C2CC(Cc3c(-c4ccc(F)cc4)[nH]c4c(F)cc(F)cc34)C2)C1 (stereo not drawn) came out at > 1 µM

Just so you know, measured IC50 for CC(C)C[C@@H](CO)NC(=O)C1CC(Cc2c(-c3ccc(F)cc3)[nH]c3c(F)cc(F)cc23)C1 (stereo partly drawn) came out at > 1 µM

Just so you know, measured IC50 for O=C([C@H]1C[C@H](c2c(-c3ccc(F)cc3)[nH]c3c(F)cc(F)cc32)C1)N1C2CCC(C2)C1CO (stereo partly drawn) came out at > 1 µM

Just so you know, measured IC50 for O=C(NCC1(CO)COC1)[C@H]1C[C@H](c2c(-c3ccc(F)cc3)[nH]c3c(F)cc(F)cc32)C1 came out at > 1 µM

Just so you know, measured IC50 for CC(=O)NCCNC(=O)C1CC(Cc2c(-c3ccc(F)cc3)[nH]c3c(F)cc(F)cc23)C1 (stereo not drawn) came out at > 1 µM

Just so you know, measured IC50 for O=C([C@H]1C[C@H](c2c(-c3ccc(F)cc3)[nH]c3c(F)cc(F)cc32)C1)N(CCO)c1cnccn1 came out at > 1 µM

Just so you know, measured IC50 for CN(CC1CC(c2c(-c3ccc(F)cc3)[nH]c3c(F)cc(F)cc23)C1)C(=O)NCc1cn(C)cn1 (stereo not drawn) came out at > 1 µM

Just so you know, measured IC50 for CC(C)C(CO)NC(=O)[C@H]1C[C@@H](c2c(-c3ccc(F)cc3)[nH]c3c(F)cc(F)cc32)C1 (stereo partly drawn) came out at > 1 µM

Just so you know, measured IC50 for CC1(NC(=O)C2CC(Cc3c(-c4ccc(F)cc4)[nH]c4c(F)cc(F)cc34)C2)CCNC1=O (stereo not drawn) came out at > 1 µM

Just so you know, measured IC50 for CC1(O)CC(C(=O)N2CCN(C(=O)[C@H]3C[C@H](c4c(-c5ccc(F)cc5)[nH]c5c(F)cc(F)cc54)C3)CC2(C)C)C1 (stereo partly drawn) came out at > 1 µM

Just so you know, measured IC50 for CN(C)C(=O)CNCC1CC(c2c(-c3ccc(F)cc3)[nH]c3c(F)cc(F)cc23)C1 (stereo not drawn) came out at 0.00025 µM

Just so you know, measured IC50 for O=C(NC[C@H]1CC[C@@H](CO)O1)NC[C@H]1C[C@H](c2c(-c3ccc(F)cc3)[nH]c3c(F)cc(F)cc32)C1 came out at > 1 µM

Just so you know, measured IC50 for C[C@@H](CO)NC(=O)N[C@H]1C[C@H](c2c(-c3ccc(F)cc3)[nH]c3c(F)cc(F)cc32)C1 came out at 0.00025 µM

Just so you know, measured IC50 for NC(=O)C(CC(F)(F)F)NCC1CC(c2c(-c3ccc(F)cc3)[nH]c3c(F)cc(F)cc23)C1 (stereo not drawn) came out at > 1 µM

Just so you know, measured IC50 for O=C([C@H]1C[C@H](c2c(-c3ccc(F)cc3)[nH]c3c(F)cc(F)cc32)C1)N1CCC[C@H]1CO came out at > 1 µM

Just so you know, measured IC50 for Cn1cc(CNC(=O)O[C@H]2C[C@H](c3c(-c4ccc(F)cc4)[nH]c4c(F)cc(F)cc43)C2)nn1 came out at > 1 µM

Just so you know, measured IC50 for Cn1cnc(CNC(=O)[C@H]2C[C@H](c3c(-c4ccc(F)cc4)[nH]c4c(F)cc(F)cc43)C2)c1 came out at < 0.25 µM

Just so you know, measured IC50 for Cc1nn(C)cc1CNC(=O)C1CC(Cc2c(-c3ccc(F)cc3)[nH]c3c(F)cc(F)cc23)C1 (stereo not drawn) came out at > 1 µM

Just so you know, measured IC50 for O=C(NC1(CO)CC1)[C@H]1C[C@@H](c2c(-c3ccc(F)cc3)[nH]c3c(F)cc(F)cc32)C1 came out at > 1 µM
